- target_of_assay: T1, CD123-Fc recombinant protein (human, UniProt P26951 19-305)
- T1 construct: Soluble staining reagent; also called CD123-Fc protein; not shown: Fc part
- T1 sequence (looked up): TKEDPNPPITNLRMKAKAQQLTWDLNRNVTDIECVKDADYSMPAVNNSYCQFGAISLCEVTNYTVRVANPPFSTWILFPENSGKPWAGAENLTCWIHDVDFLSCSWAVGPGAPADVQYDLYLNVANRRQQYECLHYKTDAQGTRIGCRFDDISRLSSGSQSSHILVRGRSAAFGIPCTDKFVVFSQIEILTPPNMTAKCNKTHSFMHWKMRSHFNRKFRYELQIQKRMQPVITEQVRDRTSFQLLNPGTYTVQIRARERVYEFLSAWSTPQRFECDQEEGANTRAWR
- method_summary: FACS staining of CAR-T cells with CD123-Fc recombinant protein (FIG. 28)
measured_metric: binding result

# binder, test_result
measured = [
    ("anti-CD123 scFv-C18 (scFv, also called C18 scFv) scFv: QSALTQPASVSGSPGQSITISCTGTSSDVGGYNYVSWYQQHPGKAPKLMIYDVSNRPSGVSNRFSGSKSGNTASLTISGLQAEDEADYYCSSYTSSSTLFVFGTGTELTVLGGGGSGGGGSGGGGSQVQLQESGPGLVKPSQTLSLTCTVSGGSISSGDYYWSWIRQSPGKGLEWIGYIHSTGTTYYNPSLKSRLTISLDTSKNQFSLKLNSVTAADTAVYYCARGGVGTIFNYWGQGTLVTVSS", "binds"),
]
